test system: Plasmodium falciparum; experiment: Antimalarial activity against Plasmodium falciparum 3D7 infected in human A positive erythrocytes by [3H]hypoxanthine uptake assay in presence of serum in medium; assay type: functional, organism-based
pEC50: −log10 of the molar value.
Readout: pEC50

[[record]]
compound = "CCCc1ccc(Nc2cc(C)nc3ncnn23)cc1"
readout = "pEC50"
value_qualifier = "="
experimental_result = 5.17

[[record]]
compound = "CCc1cc(Nc2ccc(C(F)(F)F)cc2)n2ncnc2n1"
readout = "pEC50"
value_qualifier = "="
experimental_result = 5.64

[[record]]
compound = "CCc1nc(N)nc(N)c1-c1ccc(Cl)cc1"
readout = "pEC50"
value_qualifier = "="
experimental_result = 7.64

[[record]]
compound = "Cc1cc(NC2Cc3ccc(Br)cc3C2)n2ncnc2n1 (stereo unspecified)"
readout = "pEC50"
value_qualifier = "="
experimental_result = 5.18

[[record]]
compound = "CCCCCCCCc1ccc(Nc2cc(C)nc3ncnn23)cc1"
readout = "pEC50"
value_qualifier = "<"
experimental_result = 5.30

[[record]]
compound = "CCCCCCCc1ccc(Nc2cc(C)nc3ncnn23)cc1"
readout = "pEC50"
value_qualifier = "<"
experimental_result = 5.30

[[record]]
compound = "CCCCc1ccc(Nc2cc(C)nc3ncnn23)cc1"
readout = "pEC50"
value_qualifier = "="
experimental_result = 5.32

[[record]]
compound = "Cc1cc(Nc2ccc(S(F)(F)(F)(F)F)cc2)n2ncnc2n1"
readout = "pEC50"
value_qualifier = "="
experimental_result = 5.89

[[record]]
compound = "CCc1c(C)nc2ncnn2c1Nc1ccc(C(C)C)cc1"
readout = "pEC50"
value_qualifier = "<"
experimental_result = 5.00

[[record]]
compound = "Cc1cc(NCCc2ccccc2)n2ncnc2n1"
readout = "pEC50"
value_qualifier = "<"
experimental_result = 4.70

[[record]]
compound = "COc1cc2c(cc1OC)CC(Nc1cc(C)nc3ncnn13)C2"
readout = "pEC50"
value_qualifier = "="
experimental_result = 5.11

[[record]]
compound = "FC(F)(F)c1ccc(Nc2cc(Cl)nc3ncnn23)cc1"
readout = "pEC50"
value_qualifier = "="
experimental_result = 5.47

[[record]]
compound = "CCc1c(C)nc2ncnn2c1Nc1ccc(OC(F)(F)F)cc1"
readout = "pEC50"
value_qualifier = "<"
experimental_result = 5.00

[[record]]
compound = "CCc1ccc(Nc2cc(C)nc3ncnn23)cc1"
readout = "pEC50"
value_qualifier = "="
experimental_result = 5.48

[[record]]
compound = "Cc1cc(Nc2ccc(C(C)(C)C#N)cc2)n2ncnc2n1"
readout = "pEC50"
value_qualifier = "="
experimental_result = 5.43

[[record]]
compound = "Cc1cc(Nc2ccc(Cl)c(F)c2)n2ncnc2n1"
readout = "pEC50"
value_qualifier = "="
experimental_result = 5.46

[[record]]
compound = "FC(F)(F)c1ccc(Nc2cc(C(F)(F)F)nc3ncnn23)cc1"
readout = "pEC50"
value_qualifier = "<"
experimental_result = 5.00

[[record]]
compound = "Cc1cc(Nc2ccc(C(C)(C)C)cc2)n2ncnc2n1"
readout = "pEC50"
value_qualifier = "="
experimental_result = 6.49

[[record]]
compound = "Cc1cc(NC2Cc3ccc(F)cc3C2)n2ncnc2n1 (stereo unspecified)"
readout = "pEC50"
value_qualifier = "="
experimental_result = 5.89

[[record]]
compound = "Cc1cc(Nc2ccc(C(C)C)cc2)n2ncnc2n1"
readout = "pEC50"
value_qualifier = "="
experimental_result = 6.11

[[record]]
compound = "Cc1cc(NC2Cc3ccccc3C2)n2ncnc2n1"
readout = "pEC50"
value_qualifier = "="
experimental_result = 6.40

[[record]]
compound = "Cc1cc(NCc2ccccc2)n2ncnc2n1"
readout = "pEC50"
value_qualifier = "<"
experimental_result = 5.00

[[record]]
compound = "Cc1cc(NC2CCc3cc(F)ccc3C2)n2ncnc2n1 (stereo unspecified)"
readout = "pEC50"
value_qualifier = "="
experimental_result = 5.60

[[record]]
compound = "Cc1cc(NC2CCc3ccccc3C2)n2ncnc2n1 (stereo unspecified)"
readout = "pEC50"
value_qualifier = "="
experimental_result = 5.74

[[record]]
compound = "Cc1cc(Nc2cc(F)c(C(F)(F)F)c(F)c2)n2ncnc2n1"
readout = "pEC50"
value_qualifier = "="
experimental_result = 5.96

[[record]]
compound = "Cc1cc(NC2CCc3cc(Cl)ccc3C2)n2ncnc2n1 (stereo unspecified)"
readout = "pEC50"
value_qualifier = "="
experimental_result = 5.00


----------
Molecular target: Dihydroorotate dehydrogenase (Plasmodium falciparum, UniProt Q54A96)
Sequence (Q54A96 whole entry): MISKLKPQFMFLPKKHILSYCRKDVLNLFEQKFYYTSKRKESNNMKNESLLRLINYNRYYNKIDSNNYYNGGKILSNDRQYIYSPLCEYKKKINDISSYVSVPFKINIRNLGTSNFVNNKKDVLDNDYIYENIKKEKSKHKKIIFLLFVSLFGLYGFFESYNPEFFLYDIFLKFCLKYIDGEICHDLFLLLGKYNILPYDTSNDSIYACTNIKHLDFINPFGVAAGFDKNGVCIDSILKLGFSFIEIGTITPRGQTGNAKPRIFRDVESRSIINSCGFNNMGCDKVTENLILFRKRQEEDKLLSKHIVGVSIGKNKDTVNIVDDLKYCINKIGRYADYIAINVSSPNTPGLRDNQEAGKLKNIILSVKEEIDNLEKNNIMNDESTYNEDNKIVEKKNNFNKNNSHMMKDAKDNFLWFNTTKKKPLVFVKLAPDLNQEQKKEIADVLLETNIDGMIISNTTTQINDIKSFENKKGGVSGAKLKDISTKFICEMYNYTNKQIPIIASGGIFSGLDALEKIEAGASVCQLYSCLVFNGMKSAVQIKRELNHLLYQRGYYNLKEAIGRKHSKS
Experiment: Inhibition of His6-tagged recombinant Plasmodium falciparum dihydroorotate dehydrogenase expressed in Escherichia coli using L-dihydroorotate as substrate after 5 to 10 mins by DCIP dye-based assay
Readout: IC50 (nM)

[[record]]
compound = "FC(F)(F)c1ccc(Nc2cc(C(F)(F)F)nc3ncnn23)cc1"
readout = "IC50"
value_qualifier = "="
experimental_result = 1700

[[record]]
compound = "Cc1cc(Nc2ccc3[nH]c(C(F)(F)F)nc3c2)n2ncnc2n1"
readout = "IC50"
value_qualifier = "="
experimental_result = 21000

[[record]]
compound = "Cc1cc(Nc2ccc(N3CCOCC3)cc2)n2ncnc2n1"
readout = "IC50"
value_qualifier = ">"
experimental_result = 100000

[[record]]
compound = "Cc1cc(Nc2ccc(C(C)(C)C)c(F)c2)n2ncnc2n1"
readout = "IC50"
value_qualifier = "="
experimental_result = 35

[[record]]
compound = "C#Cc1ccc(Nc2cc(C)nc3ncnn23)cc1"
readout = "IC50"
value_qualifier = "="
experimental_result = 1100

[[record]]
compound = "Cc1cc(Nc2ccc(OC(C)(C)C)cc2)n2ncnc2n1"
readout = "IC50"
value_qualifier = "="
experimental_result = 44000

[[record]]
compound = "Cc1cc(Nc2ccc3sccc3c2)n2ncnc2n1"
readout = "IC50"
value_qualifier = "="
experimental_result = 90

[[record]]
compound = "CCc1cc(Nc2ccc(C(F)(F)F)cc2)n2ncnc2n1"
readout = "IC50"
value_qualifier = "="
experimental_result = 780

[[record]]
compound = "Cc1cc(NC2Cc3ccc(Br)cc3C2)n2ncnc2n1 (configuration not stated)"
readout = "IC50"
value_qualifier = "="
experimental_result = 1200

[[record]]
compound = "Cc1cc(NCCCc2ccccc2)n2ncnc2n1"
readout = "IC50"
value_qualifier = "="
experimental_result = 26000

[[record]]
compound = "Cc1cc(NC2Cc3ccccc3C2)n2ncnc2n1"
readout = "IC50"
value_qualifier = "="
experimental_result = 500

[[record]]
compound = "Cc1cc(Nc2ccc(NC(C)(C)C)cc2)n2ncnc2n1"
readout = "IC50"
value_qualifier = ">"
experimental_result = 50000


----------
Attribute: ED50
assay: Antimalarial activity against Plasmodium berghei ANKA NK65 infected in po dosed Swiss Webster mouse assessed as reduction of parasitemia level administered qd for 4 days measured 24 hrs after last dose by light microscopic analysis; type: functional
Readout: ED50 (mg/kg)

[[record]]
molecule = "CCN(CC)CCCC(C)Nc1ccnc2cc(Cl)ccc12 (centres undefined)"
experimental_result = 1.8

[[record]]
molecule = "OC(c1cc(C(F)(F)F)nc2c(C(F)(F)F)cccc12)C1CCCCN1 (centres undefined)"
experimental_result = 3.8

[[record]]
molecule = "C[C@H]1[C@H](OC(=O)CCC(=O)O)O[C@@H]2O[C@@]3(C)CC[C@H]4[C@H](C)CC[C@@H]1[C@@]24OO3 [ARTESUNATE]"
experimental_result = 5.9

[[record]]
molecule = "Cc1cc(Nc2ccc(S(F)(F)(F)(F)F)cc2)n2ncnc2n1"
experimental_result = 17


----------
Attribute: IC50
Target: Dihydroorotate dehydrogenase (Plasmodium falciparum, UniProt Q54A96)
Sequence (Q54A96 whole entry): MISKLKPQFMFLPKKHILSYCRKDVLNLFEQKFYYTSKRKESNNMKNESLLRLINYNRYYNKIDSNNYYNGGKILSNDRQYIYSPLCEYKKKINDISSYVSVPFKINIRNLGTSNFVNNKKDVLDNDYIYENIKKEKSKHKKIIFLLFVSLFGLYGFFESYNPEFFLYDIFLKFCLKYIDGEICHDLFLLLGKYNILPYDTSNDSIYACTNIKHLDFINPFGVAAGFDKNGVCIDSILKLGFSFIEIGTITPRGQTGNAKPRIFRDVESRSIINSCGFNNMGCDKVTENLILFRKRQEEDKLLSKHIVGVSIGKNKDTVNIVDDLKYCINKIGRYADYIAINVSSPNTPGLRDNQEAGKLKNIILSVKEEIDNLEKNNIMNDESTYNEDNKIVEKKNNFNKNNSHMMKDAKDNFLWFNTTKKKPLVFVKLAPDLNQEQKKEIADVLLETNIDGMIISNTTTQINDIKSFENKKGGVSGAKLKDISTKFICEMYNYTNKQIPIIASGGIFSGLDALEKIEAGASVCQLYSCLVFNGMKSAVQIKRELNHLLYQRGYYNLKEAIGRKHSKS
Assay: Inhibition of His6-tagged recombinant Plasmodium falciparum dihydroorotate dehydrogenase expressed in Escherichia coli using L-dihydroorotate as substrate after 5 to 10 mins by DCIP dye-based assay
Readout: IC50 (nM)

[[record]]
smiles_code = "CCCc1ccc(Nc2cc(C)nc3ncnn23)cc1"
readout = "IC50"
readout_unit = "nM"
value_qualifier = "="
experimental_result = 990

[[record]]
smiles_code = "Cc1cc(Nc2ccc3c(c2)OCO3)n2ncnc2n1"
readout = "IC50"
readout_unit = "nM"
value_qualifier = "="
experimental_result = 1600

[[record]]
smiles_code = "Cc1cc(NCc2ccc(F)cc2)n2ncnc2n1"
readout = "IC50"
readout_unit = "nM"
value_qualifier = ">"
experimental_result = 100000

[[record]]
smiles_code = "CCCc1c(C)nc2ncnn2c1Nc1ccc(C)cc1"
readout = "IC50"
readout_unit = "nM"
value_qualifier = ">"
experimental_result = 100000

[[record]]
smiles_code = "Cc1cc(NC2CCCCCC2)n2ncnc2n1"
readout = "IC50"
readout_unit = "nM"
value_qualifier = ">"
experimental_result = 100000

[[record]]
smiles_code = "Cc1cc(Nc2ccc(C(C)C)cc2)n2ncnc2n1"
readout = "IC50"
readout_unit = "nM"
value_qualifier = "="
experimental_result = 220

[[record]]
smiles_code = "CCCCCc1ccc(Nc2cc(C)nc3ncnn23)cc1"
readout = "IC50"
readout_unit = "nM"
value_qualifier = "="
experimental_result = 820

